All values here come from patent US20130281544A1.

# method summary: in vitro
# Type: cell-based
# condition notes: human
value type: cytotoxicity at 6.25 μg/ml (%)

# given smiles, observed value
data = [
    ("C=C(C)[C@@H](CC=C(C)C)C[C@@]12C[C@@H](CC=C(C)C)C(C)(C)[C@@](CC=C(C)C)(C(=O)C(C(=O)c3ccc(O)c(O)c3)=C1O)C2=O", -1.94),
]

----------
# method summary: in vitro
# Type: cell-based
# condition notes: human
value type: cytotoxicity at 12.5 μg/ml (%)

# given smiles, value type, observed value
rows = [
    ("C=C(C)[C@@H](CC=C(C)C)C[C@@]12C[C@@H](CC=C(C)C)C(C)(C)[C@@](CC=C(C)C)(C(=O)C(C(=O)c3ccc(O)c(O)c3)=C1O)C2=O", "cytotoxicity at 12.5 μg/ml", 35.8),
]
